- TEST: Pharmacokinetics after oral administration, plasma by LC/MS/MS, monkey
- Type: in vivo
- CONDITION: plasma, oral, 2 mg/kg (as salt), 0.5% methylcellulose in water
OBSERVED PROPERTY: AUC(0-t) (ng·h/mL)

INSERT INTO measurements (molecule, observed_property, endpoint_result) VALUES
  ('CN[C@H](CNC(=O)N1CCC[C@@H]([C@@H](OCCNC(=O)OC)c2cccc(Cl)c2)C1)C[C@H]1CCCOC1.O=C(O)/C=C/C(=O)O [Fumarate]', 'AUC(0-t)', 381);

====

- TEST: Pharmacokinetics after oral administration, plasma by LC/MS/MS, dog
- Assay type: in vivo
- CONDITION: plasma, oral, 2 mg/kg (as salt), 0.5% methylcellulose in water
- Description: IV formulations were prepared in 1% DMSO in sterile saline. PO formulations were prepared in 0.5% methylcellulose in water, unless otherwise indicated. After compound administration, plasma samples were obtained through 24 hours post-dosing from each animal using K2EDTA as the anticoagulant. Plasma samples were treated with two volumes of acetonitrile containing an internal standard (ritanserin). […] Ten microliters of the supernatant was analyzed using LC/MS/MS.
OBSERVED PROPERTY: Cmax

INSERT INTO assay_data (compound, observed_property, endpoint_result) VALUES
  ('CN[C@H](CNC(=O)N1CCC[C@@H]([C@@H](OCCNC(=O)OC)c2cccc(Cl)c2)C1)C[C@H]1CCCOC1 [Mucate]', 'Cmax', '294 ng/mL');

This collection of values is drawn from patent US8372978B2.
